- target.under.test: T1, human PDL1-Fc fusion protein (human)
- T1 construct: also called human PDL1-Fc recombinant protein
- measurement.description: ELISA, human PDL1-Fc coated 200 ng/well, anti-His HRP
readout.label: EC50 (µg/mL)

Lookup result for PDL1-1v17 (VHH, Humanized PDL1-1, His-tagged) VHH: QVQLVESGGGLVKPGGSLRLSCAASGFTVSNSAVSWARQAPGKGLEWVSLIDSNRNTVYAQSVRGRFTISRDNAKNSVYLQMNSLRPEDTAVYYCAKGIWGSTLWGQGTTVTVSS ; measured EC50: 0.0664

P: PDL1-1v2 (VHH, Humanized PDL1-1, His-tagged) VHH: QVQLVESGGGLVKPGGSLRLSCAASGFTVSNSAVSWARQAPGKGLEWVSLIDSNRNTVYAQSVRGRFTISRDNAKNSVYLQMNSLRAEDTAVYYCAKGIWGSTLWGQGTTVTVSS
Q: PDL1-1v12 (VHH, Humanized PDL1-1, His-tagged) VHH: QVQLVESGGGLVQPGGSLRLSCAASGFTVSNSAVSWARQAPGKGLEWVSLIDSNRNTVYAQSVRGRFTISRDNAKNSVYLQMNSLRAEDTAVYYCAKGIWGSTLWGQGTTVTVSS
# input Identify the entry with the larger EC50. Options: P and Q In your reply, give the label of the chosen option.
# output Q
